Target sequence: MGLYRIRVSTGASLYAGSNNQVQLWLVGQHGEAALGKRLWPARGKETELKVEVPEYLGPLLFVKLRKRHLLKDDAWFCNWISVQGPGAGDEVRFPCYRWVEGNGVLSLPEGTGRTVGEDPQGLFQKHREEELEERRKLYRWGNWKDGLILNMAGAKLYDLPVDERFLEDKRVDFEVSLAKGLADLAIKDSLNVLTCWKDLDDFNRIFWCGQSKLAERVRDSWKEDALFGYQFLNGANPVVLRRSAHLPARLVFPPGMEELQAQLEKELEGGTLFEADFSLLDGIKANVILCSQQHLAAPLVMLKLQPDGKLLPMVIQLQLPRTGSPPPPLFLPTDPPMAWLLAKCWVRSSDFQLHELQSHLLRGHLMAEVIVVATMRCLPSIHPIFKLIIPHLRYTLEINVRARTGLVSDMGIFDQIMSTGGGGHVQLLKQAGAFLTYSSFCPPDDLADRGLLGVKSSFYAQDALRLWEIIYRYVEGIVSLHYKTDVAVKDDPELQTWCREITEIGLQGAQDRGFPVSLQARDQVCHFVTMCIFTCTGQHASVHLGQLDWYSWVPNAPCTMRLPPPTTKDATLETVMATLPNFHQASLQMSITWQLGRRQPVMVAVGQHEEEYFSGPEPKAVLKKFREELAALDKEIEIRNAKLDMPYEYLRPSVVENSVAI
measureName: IC50 (µM)

[A] C=CCNC(=O)n1nc(C(=O)Nc2ccc(F)cc2Cl)cc1C
[B] Cc1cc(C(=O)Nc2ccc(F)cc2Cl)nn1C(=O)NCCc1cccs1
Task: Min IC50? A | B Your choice should be expressed through its label.
Result: B
(B: 0.71 µM, A: 5.6 µM)
